Target Desc: GST-Galectin-3 (Homo sapiens, UniProt P17931)
Construct: Full-length human GST-Galectin-3 (hereafter named GST-Gal3) in pGEX2T was previously described; made in house
Sequence (P17931 2-250): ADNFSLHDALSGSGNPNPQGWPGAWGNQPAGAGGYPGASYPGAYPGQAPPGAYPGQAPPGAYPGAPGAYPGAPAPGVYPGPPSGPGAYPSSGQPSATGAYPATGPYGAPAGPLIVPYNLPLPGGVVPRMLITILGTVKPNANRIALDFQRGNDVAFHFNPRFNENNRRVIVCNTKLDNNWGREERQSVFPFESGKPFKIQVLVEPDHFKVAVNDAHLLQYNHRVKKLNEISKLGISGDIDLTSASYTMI
Assay Overview: Galectin-3 mediated agglutination assay on LAX56 pre-B ALL cells
Format: cell-based
Condition Parameters: GST-Gal3, 1-2 hours, peptide preincubated 5 minutes with protein
Assay Metric: effect on Galectin-3-mediated agglutination

1) PTHVTCKYCPAGNRDP [Peptide-5, scrambled negative control peptide described in the same study, reference compound]    did not have an effect
2) ANTPCGPYTHDCPVKR [Peptide-4, reference compound]    did not have an effect
